target: Metabotropic glutamate receptor 8 (Rattus norvegicus) (UniProt P70579); assay: mGluR8 Gi/Go-coupled signaling modulation – cell-based, rat, thallium flux, HTS, primary screen (AID 488969); conditions: HEK293 rat mGluR8, GIRK thallium flux, FluoZin2; at 10 µM; stronger effect = higher value; submaximal glutamate (EC20) added with thallium
Sequence (P70579 whole entry, looked up): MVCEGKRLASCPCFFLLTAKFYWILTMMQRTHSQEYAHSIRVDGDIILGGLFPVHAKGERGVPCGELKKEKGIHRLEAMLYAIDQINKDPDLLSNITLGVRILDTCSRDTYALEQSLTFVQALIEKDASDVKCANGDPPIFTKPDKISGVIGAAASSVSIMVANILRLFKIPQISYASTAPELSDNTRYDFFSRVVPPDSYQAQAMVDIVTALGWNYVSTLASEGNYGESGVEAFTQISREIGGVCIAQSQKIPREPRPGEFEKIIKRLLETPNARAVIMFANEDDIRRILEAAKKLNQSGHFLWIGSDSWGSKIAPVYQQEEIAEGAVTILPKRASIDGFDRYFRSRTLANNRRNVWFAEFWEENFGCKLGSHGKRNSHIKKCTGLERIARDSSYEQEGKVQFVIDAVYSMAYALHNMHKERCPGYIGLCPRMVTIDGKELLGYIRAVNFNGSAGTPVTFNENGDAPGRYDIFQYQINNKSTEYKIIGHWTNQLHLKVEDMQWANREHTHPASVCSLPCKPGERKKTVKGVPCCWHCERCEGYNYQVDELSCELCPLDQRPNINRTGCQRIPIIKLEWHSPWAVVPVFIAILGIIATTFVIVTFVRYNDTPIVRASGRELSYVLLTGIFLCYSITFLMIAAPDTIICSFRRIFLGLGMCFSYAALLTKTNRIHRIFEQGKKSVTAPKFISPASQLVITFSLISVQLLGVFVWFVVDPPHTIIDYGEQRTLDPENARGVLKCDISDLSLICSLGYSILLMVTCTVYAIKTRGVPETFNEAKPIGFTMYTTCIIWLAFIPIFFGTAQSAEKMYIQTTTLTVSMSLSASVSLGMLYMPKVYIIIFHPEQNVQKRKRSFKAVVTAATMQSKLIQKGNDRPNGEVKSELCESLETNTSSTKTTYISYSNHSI
In all, about 110,000 compounds were measured (“z-score”: median about -0.1, highest 2% from about 2 on). What follows is part of a selection rich in the highest values, with near analogues and random picks from the rest.
Record form. Attribute: z-score. Fill in for each entry.
One number for each entry.

Record excerpt, results attached:
>  <molecule>
CC(NS(=O)(=O)c1ccc(CCC(=O)N2CCN(C)CC2)cc1)c1ccccc1 (stereo unspecified)

>  <z-score>
-0.349

$$$$
>  <molecule>
O=C1c2ccccc2C(=O)N1CNc1ccccc1

>  <z-score>
0.141

$$$$
>  <molecule>
Cc1[nH]n(-c2ccccc2)c(=O)c1N=Nc1cccc(S(=O)(=O)N2CCOCC2)c1

>  <z-score>
0.327

$$$$

Could I get z-score for every one of these entries?
1. CCNc1ccc(S(=O)(=O)N(C)C)cc1NCC(=O)Nc1ccc(Br)cc1F
2. CC(CCc1ccccc1)NC(=O)C(Cc1ccccc1)NS(=O)(=O)c1cccs1 (stereo unspecified)

Key:
1. -0.257
2. -0.446

Could I get z-score for every one of these entries?
1. Cc1cccc(OCC(=O)Nc2ccccc2N2CCCCC2)c1
2. O=C(COC(=O)C1CCN(S(=O)(=O)c2ccc3c(c2)OCCO3)CC1)Nc1cc(C(F)(F)F)ccc1Cl

Key:
1. 0.378
2. -0.303

Could I get z-score for every one of these entries?
1. CC(=O)Nc1ccc(S(=O)(=O)Nc2nnc(C(C)(C)C)s2)cc1
2. O=C(NCc1cccs1)C1CCN(S(=O)(=O)c2cccs2)CC1
3. O=C1C=C(c2ccccc2)C(=O)N1Nc1ccccc1
4. O=C1c2ccccc2C(=O)N1Nc1ccccc1

Key:
1: 0.307; 2: -0.232; 3: 0.219; 4: 4.88

====

Record form. Attribute: z-score. Fill in for each entry.
molecular target: Metabotropic glutamate receptor 8 (Rattus norvegicus) (UniProt P70579); experiment: mGluR8 Gi/Go-coupled signaling modulation – cell-based, rat, thallium flux, HTS, primary screen (AID 488969); details: HEK293 rat mGluR8, GIRK thallium flux, FluoZin2; at 10 µM; stronger effect = higher value; submaximal glutamate (EC20) added with thallium
In all, about 110,000 compounds were measured (“z-score”: median about -0.1, highest 2% from about 2 on). The sample holds the highest values, similar compounds and a random draw of the others, so the mix is not that of the screen.

Record excerpt, results attached:
>  <compound>
O=C(NCc1ccco1)c1cnn2c(C(F)(F)F)cc(-c3ccccc3)nc12

>  <targetOfAssay>
Metabotropic glutamate receptor 8 (Rattus norvegicus) (UniProt P70579)

>  <z-score>
-0.67

$$$$
>  <compound>
CC(C)(C)NCCOc1ccc(Br)cc1

>  <targetOfAssay>
Metabotropic glutamate receptor 8 (Rattus norvegicus) (UniProt P70579)

>  <z-score>
-0.0295

$$$$
>  <compound>
Cc1cccc(-n2c(O)c(C=NCc3ccccn3)c3ccccc3c2=O)c1

>  <targetOfAssay>
Metabotropic glutamate receptor 8 (Rattus norvegicus) (UniProt P70579)

>  <z-score>
-0.159

$$$$
>  <compound>
Cc1cc(C)cc(NC(=O)C(Nc2ccccc2)c2ccccc2)c1 (stereo unspecified)

>  <targetOfAssay>
Metabotropic glutamate receptor 8 (Rattus norvegicus) (UniProt P70579)

>  <z-score>
0.168

$$$$
>  <compound>
Cc1ccc(-n2c(O)c(C=NCc3ccccn3)c3ccccc3c2=O)cc1

>  <targetOfAssay>
Metabotropic glutamate receptor 8 (Rattus norvegicus) (UniProt P70579)

>  <z-score>
-0.774

$$$$

Kindly review the next compound as well.
Exercise: Item under review: "O=[N+]([O-])c1ccc(O)c(/C=N/n2cnc3ccccc32)c1" . Reported z-score?
Key: -0.812

====

target: Metabotropic glutamate receptor 8 (Rattus norvegicus); test: mGluR8 Gi/Go-coupled signaling modulation – cell-based, rat, thallium flux, HTS, primary screen (AID 488969); details: HEK293 rat mGluR8, GIRK thallium flux, FluoZin2; at 10 µM; stronger effect = higher value; submaximal glutamate (EC20) added with thallium
In all, about 110,000 compounds were measured (“z-score”: median about -0.1, highest 2% from about 2 on). Many of the other results were omitted from the sample, so the highest values are more common in it than they were.
Binning of z-score into classes: lowest (below -0.2), middle (-0.2 to below 0.2), highest (0.2 or more)

Example entries begin here.
>  <molecule>
COc1ccc(Nc2nc(N)nc(COc3ccc(OC)cc3)n2)cc1

>  <targetOfAssay>
Metabotropic glutamate receptor 8 (Rattus norvegicus)

>  <discreteLabel>
middle

$$$$
>  <molecule>
O=C1CCCc2sccc2N1

>  <targetOfAssay>
Metabotropic glutamate receptor 8 (Rattus norvegicus)

>  <discreteLabel>
middle

$$$$
>  <molecule>
Cc1ccc(C)c(Cn2nnc3c(=O)[nH]c(C4CCCN(C(=O)C5CCCCC5)C4)nc32)c1 (configuration not stated)

>  <targetOfAssay>
Metabotropic glutamate receptor 8 (Rattus norvegicus)

>  <discreteLabel>
lowest

$$$$
>  <molecule>
COc1ccc(NC(=O)c2ocnc2C)cc1OC

>  <targetOfAssay>
Metabotropic glutamate receptor 8 (Rattus norvegicus)

>  <discreteLabel>
lowest

$$$$
>  <molecule>
C=CCSc1nnc(NC(=O)CSc2ccccn2)s1

>  <targetOfAssay>
Metabotropic glutamate receptor 8 (Rattus norvegicus)

>  <discreteLabel>
lowest

$$$$
>  <molecule>
Cc1cc(C)n2nc(C(=O)OCC(=O)c3cc(C)n(C)c3C)nc2n1

>  <targetOfAssay>
Metabotropic glutamate receptor 8 (Rattus norvegicus)

>  <discreteLabel>
middle

$$$$

Exercise: Please indicate the class for "O=C(NCc1ccccc1)c1sc(=S)n2c1[nH]c(=O)c1ccccc12" based on its z-score.
Key: lowest

Exercise: Please indicate the class for "CCOC(=O)c1c(NC(=O)COc2cccc3c2CCN(CC)C3=O)sc2c1CCC2" based on its z-score.
Key: lowest

Exercise: Please indicate the class for Cc1cc2cc(CN(CC3CCCO3)C(=S)Nc3ccccc3)c(=O)[nH]c2cc1C (configuration not stated) based on its z-score.
Key: lowest

====

target: Metabotropic glutamate receptor 8 (Rattus norvegicus) (UniProt P70579); assay: mGluR8 Gi/Go-coupled signaling modulation – cell-based, rat, thallium flux, HTS, primary screen (AID 488969); conditions: HEK293 rat mGluR8, GIRK thallium flux, FluoZin2; at 10 µM; stronger effect = higher value; submaximal glutamate (EC20) added with thallium
Whole data set: some 110,000 compounds, median “z-score” near -0.1, cut for the highest 2% near 2. The entries come from a sample that favours the highest values as a whole. Active and inactive are the calls of the source.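 Rule for the calls: active = z-score in the third read window above 3 or below -3; inactive = the rest.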
measuredQuantity: z-score

>  <molecule>
COc1ccc(C)cc1NC(=O)C(=O)NNC(=O)c1ccco1

>  <z-score>
4.89 (active)

$$$$
>  <molecule>
Cn1c(CCN2CCN(c3ccc(F)cc3)CC2)nc2cc(NC(=O)c3ccco3)ccc21

>  <z-score>
-2.09

$$$$
>  <molecule>
Cc1ccc(S(=O)(=O)N2CCCCC2)cc1NC(=O)COC(=O)C1CC2C=CC1C2 (stereo not given)

>  <z-score>
2.38

$$$$

Could I get z-score for every one of these entries?
1. CCNC(=S)N/N=C/c1cccc(C)c1
2. O=C(NCc1ccccc1F)c1cccs1
3. COc1ccccc1NC(=O)C(=O)NNC(=O)c1ccco1
4. CCOC(=O)c1c(C(F)(F)F)nc2ncccn12
5. N#Cc1ccc(C(=O)Nc2cc(S(=O)(=O)Nc3ccc(Cl)cc3)ccc2N2CCCCC2)cc1
6. COc1ccc(Cl)cc1NC(=O)c1ccco1

Key:
[0.00977, -0.158, 2.81, -0.534, -0.309, -0.426]

====

biological target: Metabotropic glutamate receptor 8 (Rattus norvegicus) (UniProt P70579); experiment: mGluR8 Gi/Go-coupled signaling modulation – cell-based, rat, thallium flux, HTS, primary screen (AID 488969); details: HEK293 rat mGluR8, GIRK (G protein-gated inwardly rectifying potassium channel) thallium flux, FluoZin2; at 10 µM; stronger effect = higher value; submaximal glutamate (EC20) added with thallium
Whole data set: some 110,000 compounds, median “z-score” near -0.1, cut for the highest 2% near 2. Many of the other results were omitted from the sample, so the highest values are more common in it than they were.
Binning of z-score into classes: b0 = under -0.5, b1 = from -0.5 up to -0.01, b2 = -0.01 and over

Example entries begin here.
>  <molecule>
Cc1ccccc1-n1c(O)c(/C=N/N2CCCCC2c2cccnc2)c(=O)[nH]c1=O (stereo not given)

>  <discreteLabel>
b1

$$$$
>  <molecule>
CCOC(=O)CC1=CSC2=NS(=O)(=O)CCN12

>  <discreteLabel>
b0

$$$$
>  <molecule>
CCOC(=O)C1CCC(CNCc2ccc(Cl)cc2)CC1 (stereo not given)

>  <discreteLabel>
b0

$$$$

Exercise: Please indicate the class for CC1CN(CC(=O)c2c(N)n(Cc3ccccc3)c(=O)n(C)c2=O)CC(C)O1 (stereo not given) based on its z-score.
Key: b2

Exercise: Please indicate the class for "Cc1ccc(NC(=O)Cn2nnc(-c3ccccc3NC(=O)c3cccs3)n2)cc1" based on its z-score.
Key: b0

Exercise: Please indicate the class for "NS(=O)(=O)c1ccc(CCNC(=O)C2CCN(S(=O)(=O)c3cnc[nH]3)CC2)cc1" based on its z-score.
Key: b2

Exercise: Please indicate the class for "Cc1onc(-c2c(F)cccc2Cl)c1C(=O)N1C=CC(C(F)(F)F)=NCC1" based on its z-score.
Key: b1

Exercise: Please indicate the class for "CCCN(CCC)C(=O)c1ccccc1C(=O)N(CCC)CCC" based on its z-score.
Key: b1

Exercise: Please indicate the class for "CCc1cc2c(=O)c(-c3cnn(-c4ccccc4)c3)c(C)oc2cc1OCC(=O)Nc1ccc(F)c(F)c1" based on its z-score.
Key: b2
